- Experiment description: n-octanol-water distribution coefficient, log D of the compound at pH 7.4 by shake flask method
- Type: physicochemical
- Experimental parameters: n-octanol/water, read-out: logD
Measured quantity: logD

Look up logD for this compound: `CO[C@H]1C[C@H]2CC[C@@H](C1)N2c1c(-c2c(F)cc(C#N)cc2F)c(Cl)nc2ncnn12`
2.74

// repeat for CC(C)[C@@H](C)Nc1c(-c2ccc(C#N)cc2F)c(Cl)nc2ncnn12 (stereo in doubt; 67) and report
2.9

----------
- System tested: Tubulin (Homo sapiens) (UniProt P68371+Q9H4B7+P0DPH7+P68366+Q13509+Q71U36+P04350+Q3ZCM7+P07437+P68363+Q9BQE3+Q6PEY2+Q13885+Q9BVA1+Q9BUF5)
- Experiment description: Stabilization of microtubules in human QBI293 cells assessed as fold change in acetylated tubulin levels at 10 uM after 4 hrs by ELISA relative to DMSO
- Format: cell-based
hey, just use y if measured fold change (FC) is less than 2, otherwise n

Some solved cases for reference:
>  <Compound>
C[C@@H](Nc1c(-c2c(F)cc(F)cc2F)c(Cl)nc2ncnn12)C(F)(F)F

>  <Assigned class>
n

$$$$
>  <Compound>
Fc1cc(F)c(-c2c(Cl)nc3ncnn3c2NC2CCC2)c(F)c1

>  <Assigned class>
y

$$$$
>  <Compound>
C[C@H](Nc1c(-c2ccc(F)cc2)c(Cl)nc2ncnn12)C(F)(F)F

>  <Assigned class>
n

$$$$
>  <Compound>
C[C@H](Nc1c(-c2c(F)cc(C#N)cc2F)c(Cl)nc2ncnn12)C(F)(F)F

>  <Assigned class>
n

$$$$
>  <Compound>
CC(CF)Nc1c(-c2c(F)cc(F)cc2F)c(Cl)nc2ncnn12 (stereo not given)

>  <Assigned class>
y

$$$$

Dear colleague, could you confirm whether fold change (FC) of `Nc1c(-c2c(F)cc(F)cc2F)c(Cl)nc2ncnn12` falls below 2? Thanks.
y

// repeat for `N#Cc1cc(F)c(-c2c(Cl)nc3ncnn3c2N2CCCCCC2)c(F)c1` and report
n

// repeat for `C[C@H](Nc1c(-c2ccc(F)cc2F)c(Cl)nc2ncnn12)C(F)(F)F` and report
n

// repeat for `C[C@H](Nc1c(-c2c(F)cc(Cl)cc2F)c(Cl)nc2ncnn12)C(F)(F)F` and report
n

// repeat for `C[C@H](Nc1c(-c2c(F)cc(S(=O)(=O)CCCN(C)C)cc2F)c(Cl)nc2ncnn12)C(F)(F)F` and report
y

----------
- System tested: Tubulin (Homo sapiens) (UniProt P68371+Q9H4B7+P0DPH7+P68366+Q13509+Q71U36+P04350+Q3ZCM7+P07437+P68363+Q9BQE3+Q6PEY2+Q13885+Q9BVA1+Q9BUF5)
- Experiment description: Stabilization of microtubules in human QBI293 cells assessed as fold change in acetylated tubulin levels at 10 uM after 4 hrs by ELISA relative to DMSO
- Format: cell-based
Note: every record was labeled by where its fold change (FC) sits among lower = under 2, middle = from 2 up to 4, upper = 4 and over

Some solved cases for reference:
>  <Molecule>
N#Cc1ccc(-c2c(Cl)nc3ncnn3c2N2CCCCCC2)c(F)c1

>  <Assigned class>
upper

$$$$
>  <Molecule>
Fc1cc(F)c(-c2c(Cl)nc3ncnn3c2NC2CCCCC2)c(F)c1

>  <Assigned class>
middle

$$$$
>  <Molecule>
C[C@H](Nc1c(-c2ccccc2)c(Cl)nc2ncnn12)C(F)(F)F

>  <Assigned class>
middle

$$$$

Query molecule follows.
Bin? `Fc1cc(F)c(-c2c(Cl)nc3ncnn3c2N2CCCCC2)c(F)c1`
upper

----------
- System tested: Tubulin (Homo sapiens) (UniProt P68371+Q9H4B7+P0DPH7+P68366+Q13509+Q71U36+P04350+Q3ZCM7+P07437+P68363+Q9BQE3+Q6PEY2+Q13885+Q9BVA1+Q9BUF5)
- Experiment description: Stabilization of microtubules in human QBI293 cells assessed as fold change in acetylated tubulin levels at 10 uM after 4 hrs by ELISA relative to cevipabulin
- Assay type: cell-based
Property: fold change (FC); scope: individual molecules
Give only the figure.

>  <Molecule>
C[C@H](Nc1c(-c2c(F)cc(N)cc2F)c(Cl)nc2ncnn12)C(F)(F)F

>  <Quantitative readout>
0.13

$$$$
>  <Molecule>
CC(C)[C@@H](C)Nc1c(-c2ccc(C#N)cc2F)c(Cl)nc2ncnn12 (stereo in doubt; 68)

>  <Quantitative readout>
0.5

$$$$
>  <Molecule>
CSc1cc(F)c(-c2c(Cl)nc3ncnn3c2N[C@@H](C)C(F)(F)F)c(F)c1

>  <Quantitative readout>
0.35

$$$$
>  <Molecule>
CC(Nc1c(-c2c(F)cc(F)cc2F)c(Cl)nc2ncnn12)C(F)F (stereo unspecified)

>  <Quantitative readout>
0.35

$$$$
>  <Molecule>
C[C@H](Nc1c(-c2c(F)cc(O)cc2F)c(Cl)nc2ncnn12)C(F)(F)F

>  <Quantitative readout>
0.77

$$$$
>  <Molecule>
C[C@H](Nc1c(-c2c(F)cc([N+](=O)[O-])cc2F)c(Cl)nc2ncnn12)C(F)(F)F

>  <Quantitative readout>
1.23

$$$$

Look up fold change (FC) for this molecule: `Fc1cc(F)c(-c2c(Cl)nc3ncnn3c2NCc2ccccc2)c(F)c1`
0.22

// repeat for `Oc1c(-c2c(F)cc(F)cc2F)c(Cl)nc2ncnn12` and report
0.17

// repeat for `Cc1cc(F)c(-c2c(Cl)nc3ncnn3c2N[C@@H](C)C(F)(F)F)c(F)c1` and report
0.48

// repeat for `C[C@@H](Nc1c(-c2c(F)cc(F)cc2F)c(Cl)nc2ncnn12)C(F)(F)F` and report
0.43

// repeat for `C[C@H](Nc1c(-c2c(F)cc(S(=O)(=O)CCCN(C)C)cc2F)c(Cl)nc2ncnn12)C(F)(F)F` and report
0.23

// repeat for `Fc1cc(F)c(-c2c(Cl)nc3ncnn3c2NC2CCC2)c(F)c1` and report
0.23

// repeat for `N#Cc1cc(F)c(-c2c(Cl)nc3ncnn3c2N2CCCCCC2)c(F)c1` and report
1.82

// repeat for `Fc1cc(F)c(-c2c(Cl)nc3ncnn3c2NC2CCCC2)c(F)c1` and report
0.45

// repeat for `Fc1cc(F)c(-c2c(Cl)nc3ncnn3c2N2CCCCC2)c(F)c1` and report
0.33

// repeat for `C[C@H](Nc1c(-c2ccccc2)c(Cl)nc2ncnn12)C(F)(F)F` and report
0.3

// repeat for `Fc1cc(F)c(-c2c(Cl)nc3ncnn3c2N2CCCC2)c(F)c1` and report
0.16

// repeat for `CC(C)[C@@H](C)Nc1c(-c2ccccc2F)c(Cl)nc2ncnn12` and report
0.43

// repeat for `Fc1cc(F)c(-c2c(Cl)nc3ncnn3c2NC2CCCCC2)c(F)c1` and report
0.23

// repeat for `C[C@H](Nc1c(-c2ccc(F)c(F)c2F)c(Cl)nc2ncnn12)C(F)(F)F` and report
0.34

// repeat for `C[C@H](Nc1c(-c2ccc(F)cc2F)c(Cl)nc2ncnn12)C(F)(F)F` and report
0.27

// repeat for `C[C@H](Nc1c(-c2cc(F)cc(F)c2)c(Cl)nc2ncnn12)C(F)(F)F` and report
0.3

// repeat for `COc1cc(F)c(-c2c(Cl)nc3ncnn3c2N[C@@H](C)C(F)(F)F)c(F)c1` and report
0.42

// repeat for `C[C@H](Nc1c(Cc2c(F)cc(F)cc2F)c(Cl)nc2ncnn12)C(F)(F)F` and report
0.1

// repeat for `N#Cc1cc(F)c(-c2c(Cl)nc3ncnn3c2N2CCCCCCC2)c(F)c1` and report
0.79

----------
- System tested: Tubulin (Homo sapiens) (UniProt P68371+Q9H4B7+P0DPH7+P68366+Q13509+Q71U36+P04350+Q3ZCM7+P07437+P68363+Q9BQE3+Q6PEY2+Q13885+Q9BVA1+Q9BUF5)
- Experiment description: Stabilization of microtubules in human QBI293 cells assessed as fold change in alpha tubulin levels at 10 uM after 4 hrs by ELISA relative to DMSO
- Format: cell-based
Measured quantity: fold change (FC)
Give only the figure.

>  <Compound>
CC(C)[C@@H](C)Nc1c(-c2c(F)cc(C#N)cc2F)c(Cl)nc2ncnn12

>  <fold change (FC)>
0.94

$$$$

Look up fold change (FC) for this compound: CC(C)[C@@H](C)Nc1c(-c2ccc(C#N)cc2F)c(Cl)nc2ncnn12 (stereo in doubt; 68)
0.92

// repeat for `C[C@H](Nc1c(-c2cc(F)cc(F)c2)c(Cl)nc2ncnn12)C(F)(F)F` and report
1.12

// repeat for `C[C@H](Nc1c(-c2c(F)cc(C(F)(F)F)cc2F)c(Cl)nc2ncnn12)C(F)(F)F` and report
1.02

// repeat for `N#Cc1cc(F)c(-c2c(Cl)nc3ncnn3c2N2CCCCCCC2)c(F)c1` and report
0.99

// repeat for `N#Cc1cc(F)c(-c2c(Cl)nc3ncnn3c2N2CCCCCC2)c(F)c1` and report
0.99

// repeat for `C[C@H](Nc1c(-c2ccc(F)c(F)c2)c(Cl)nc2ncnn12)C(F)(F)F` and report
1.13

// repeat for `Fc1cc(F)c(-c2c(Cl)nc3ncnn3c2N2CCC2)c(F)c1` and report
1.17
